Tgt: Adrenergic receptor alpha-2 (Rattus norvegicus, UniProt P22086+P19328+P22909)
Sequence (P22086 whole entry): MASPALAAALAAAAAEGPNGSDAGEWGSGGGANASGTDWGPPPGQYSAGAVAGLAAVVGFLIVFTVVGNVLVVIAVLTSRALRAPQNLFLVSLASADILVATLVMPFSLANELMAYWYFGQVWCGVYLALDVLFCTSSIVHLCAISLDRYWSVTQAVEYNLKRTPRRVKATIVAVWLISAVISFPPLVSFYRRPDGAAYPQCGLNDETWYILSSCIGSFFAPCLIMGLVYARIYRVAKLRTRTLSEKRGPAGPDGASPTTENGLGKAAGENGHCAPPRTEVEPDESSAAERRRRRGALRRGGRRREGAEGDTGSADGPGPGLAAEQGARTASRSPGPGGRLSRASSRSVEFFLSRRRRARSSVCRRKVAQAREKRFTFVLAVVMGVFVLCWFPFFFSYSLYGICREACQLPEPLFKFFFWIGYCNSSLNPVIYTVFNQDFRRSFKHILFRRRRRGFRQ
Sequence (P19328 whole entry): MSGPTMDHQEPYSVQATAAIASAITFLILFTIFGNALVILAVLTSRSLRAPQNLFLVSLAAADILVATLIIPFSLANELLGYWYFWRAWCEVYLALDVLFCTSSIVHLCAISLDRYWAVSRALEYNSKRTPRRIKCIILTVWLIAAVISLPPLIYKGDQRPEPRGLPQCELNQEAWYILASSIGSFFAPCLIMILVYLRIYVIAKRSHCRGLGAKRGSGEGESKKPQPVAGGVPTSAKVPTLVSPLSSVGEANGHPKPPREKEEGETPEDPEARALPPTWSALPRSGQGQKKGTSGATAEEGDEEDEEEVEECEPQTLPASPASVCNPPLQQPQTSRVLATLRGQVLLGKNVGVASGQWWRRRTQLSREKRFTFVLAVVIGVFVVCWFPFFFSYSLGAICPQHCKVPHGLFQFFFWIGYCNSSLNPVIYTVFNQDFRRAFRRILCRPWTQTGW
Sequence (P22909 whole entry): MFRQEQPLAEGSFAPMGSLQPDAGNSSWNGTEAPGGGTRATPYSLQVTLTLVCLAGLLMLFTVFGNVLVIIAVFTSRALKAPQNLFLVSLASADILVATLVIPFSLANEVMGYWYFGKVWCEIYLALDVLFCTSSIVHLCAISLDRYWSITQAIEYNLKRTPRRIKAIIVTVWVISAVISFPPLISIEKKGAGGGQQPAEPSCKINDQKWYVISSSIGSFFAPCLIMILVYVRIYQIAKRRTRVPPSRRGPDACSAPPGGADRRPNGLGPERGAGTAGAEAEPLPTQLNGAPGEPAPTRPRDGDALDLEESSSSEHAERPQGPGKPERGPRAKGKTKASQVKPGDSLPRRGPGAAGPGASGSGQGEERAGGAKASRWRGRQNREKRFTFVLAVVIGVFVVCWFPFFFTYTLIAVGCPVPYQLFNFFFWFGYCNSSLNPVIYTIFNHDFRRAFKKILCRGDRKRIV
Assay summary: Binding affinity at alpha-2 adrenergic receptors of rat.
Format: protein assay
Assay metric: Ki (nM)
Express the result in nM but write the number alone.

| Compound | Tgt | Observed value |
| --- | --- | --- |
| COc1cccc2c3c([nH]c12)CNCC3 | Adrenergic receptor alpha-2 (Rattus norvegicus, UniProt P22086+P19328+P22909) | 640 |
| Brc1cccc2[nH]c3c(c12)CCN=C3 | Adrenergic receptor alpha-2 (Rattus norvegicus, UniProt P22086+P19328+P22909) | 3160 |

Data request: Look up Ki: NCCc1c[nH]c2ccccc12 [TRYPTAMINE]
Data returned: 19000

Data request: Look up Ki: COc1cccc2c3c([nH]c12)C=NCC3
Data returned: 5020
